Measured values drawn from patent US20230233569A1 for this set.

In this section, each of the compounds is paired with its reported pIC50.
- targetOrTestSystem: KRAS Q61H (Homo sapiens, UniProt P01116+P62937, Q61H)
- Sequence (P01116 1-169 isoform P01116-2 Q61H limits assumed): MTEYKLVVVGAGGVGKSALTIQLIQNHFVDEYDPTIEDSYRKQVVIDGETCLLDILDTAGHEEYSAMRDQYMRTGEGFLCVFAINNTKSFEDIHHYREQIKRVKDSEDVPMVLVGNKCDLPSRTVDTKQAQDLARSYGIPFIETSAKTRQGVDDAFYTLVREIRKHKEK
- Sequence (P62937 whole entry): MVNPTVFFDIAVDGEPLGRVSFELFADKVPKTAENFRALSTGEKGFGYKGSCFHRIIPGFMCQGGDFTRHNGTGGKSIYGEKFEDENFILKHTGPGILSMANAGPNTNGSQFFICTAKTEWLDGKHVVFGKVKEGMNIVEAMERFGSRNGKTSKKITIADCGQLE
- assayComment: Disruption of BRAF RBD interaction with Ras (FRET / MOA assay, with Cyclophilin A)
- Format: biochemical
- statedConditions: KRAS Q61H; read-out: KRAS Q61H FRET data IC50
pIC50: −log10 of the molar value.

// returns reported pIC50 for input C=CC(=O)N1CC[C@@H](N(C)C(=O)N(C)[C@H](C(=O)N[C@H]2Cc3nc(cs3)-c3ccc4c(c3)c(c(-c3cccnc3[C@H](C)OC)n4CC(F)(F)F)CC(C)(C)COC(=O)[C@@H]3CCCN(N3)C2=O)C(C)C)C1 (atropisomer, axis not shown) [Example A728]
6.00 to 7.00

The record that follows has no pIC50 shown yet.
// returns reported pIC50 for input CCn1c(-c2cccnc2[C@H](C)OC)c2c3cc(ccc31)-c1cc(O)cc(c1)C[C@H](NC(=O)C(C)Cc1ccncc1)C(=O)N1CCC[C@H](N1)C(=O)OCC(C)(C)C2 (some centres unmarked) [Example A179]
6.00 to 7.00
